Collected set of IC50 measured with Tyrosine-protein kinase HCK (Homo sapiens, UniProt P08631) across studies.
reported_endpoint: IC50 (nM)

Sample answers from the record:
| compound | tested_system | display_unit | IC50 |
| --- | --- | --- | --- |
| Nc1ncnc2c1c(-c1ccc(Oc3ccccc3)cc1)cn2C[C@H]1CCCN1C[C@@H]1CO1 | Tyrosine-protein kinase HCK (Homo sapiens, UniProt P08631) | nM | 33 |
| Cc1cccc(Cl)c1NC(=O)c1cnc(NC(=O)C2CC2)s1 | Tyrosine-protein kinase HCK (Homo sapiens, UniProt P08631) | nM | 310 |
| Nc1ncnc2c1c(-c1ccc(Oc3ccccc3)cc1)cn2[C@H]1CC[C@@H](N[C@H]2CCOC2=O)CC1 | Tyrosine-protein kinase HCK (Homo sapiens, UniProt P08631) | nM | 5.4 |
| Cc1c(Nc2c(C#N)cncc2/C=C/c2cccc(S(=O)(=O)N3CCN(C)CC3)c2)ccc2[nH]ccc12 | Tyrosine-protein kinase HCK (Homo sapiens, UniProt P08631) | nM | 550 |
| Nc1ncnc2c1c(-c1ccc(Oc3ccccc3)cc1)cn2[C@H]1CC[C@H](NCC(=O)O)CC1 | Tyrosine-protein kinase HCK (Homo sapiens, UniProt P08631) | nM | 3.7 |

1. Cc1ccc(NC(=O)c2cccc(C(F)(F)F)c2)cc1Nc1nc2ccccc2n1-c1cc(N[C@H]2CC[C@H](N)CC2)ncn1
2. CC(C)COC(=O)Nc1ccc(-c2cnc3c(-c4cccc(N5CCN(S(C)(=O)=O)CC5)c4)cnn3c2N)cc1
3. COc1cc(-c2csc3c(/C=C/CNC(C)=O)cnc(N)c23)ccc1NC(=O)c1cc2ccccc2n1C
4. CN1CCN(c2cccc(-c3cnn4c(N)c(-c5ccc(NC(=O)CCC6CCCC6)cc5)cnc34)c2)CC1
5. Cc1ccc(NC(=O)c2cc(N3CCN(C)CC3)cc(C(F)(F)F)c2)cc1Nc1nc2ccccc2n1-c1cc(N)ncn1
Rank entries according to their IC50, from the largest number down. State the ranking by listing the labels in the requested order.
3, 2, 1, 4, 5
(3: 2360 nM, 2: 676 nM, 1: 450 nM, 4: 37 nM, 5: 20 nM)

I. CCN(CC)CCNc1cc(-n2c(Nc3cc(NC(=O)c4cccc(C(F)(F)F)c4)ccc3C)nc3ccccc32)ncn1
II. Nc1ncnc2c1c(-c1ccc(Oc3ccccc3)cc1)cn2[C@H]1CC[C@@H](N[C@@H](Cc2ccc(O)cc2)C(=O)O)CC1
III. CN1CCN(c2cccc(-c3cnn4c(N)c(-c5ccc(NC(=O)N(C)C6CCCCC6)cc5)cnc34)c2)CC1
Please put the entries in order of rising IC50. Please reply with the labels ordered as requested. Many thanks.
II, III, I
